Numbers sourced from patent US9597310B2.

# Tested system: UniProt O14842
# Sequence (O14842 whole entry): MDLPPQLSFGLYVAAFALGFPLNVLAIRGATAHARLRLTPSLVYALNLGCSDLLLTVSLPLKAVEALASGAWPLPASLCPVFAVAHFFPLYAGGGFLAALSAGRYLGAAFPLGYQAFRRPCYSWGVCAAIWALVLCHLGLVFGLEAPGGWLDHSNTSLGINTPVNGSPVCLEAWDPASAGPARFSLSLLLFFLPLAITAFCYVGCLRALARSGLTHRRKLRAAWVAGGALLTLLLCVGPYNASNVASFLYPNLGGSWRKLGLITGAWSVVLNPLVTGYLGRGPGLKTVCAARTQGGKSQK
# Protocol summary: IP1 accumulation measurements using the IPOne assay system
# Test parameters: 1321N1 cells stably expressing human GPR40 receptor, 1 h stimulation
Value kind: pEC50
Notebook: values listed as pEC50 are -log10 of the concentration (mol/L).

Request: Entry CC(=O)Nc1cccc(Oc2ccc(F)c3c2CC[C@H]3Oc2ccc3c(c2)OC[C@H]3CC(=O)O)c1 [Example 6] : reported pEC50 = ?
Response: 8.10

Request: Entry CC(C)(O)CCOc1ccc(Oc2ccc(F)c3c2CC[C@H]3Oc2ccc3c(c2)OC[C@H]3CC(=O)O)c(C#N)c1 [Example 47] : reported pEC50 = ?
Response: 8.10

Request: Entry CC(C)(O)Cn1cc(-c2cc(F)c(Oc3ccc(F)c4c3CC[C@H]4Oc3ccc4c(c3)OC[C@H]4CC(=O)O)cc2F)cn1 [Example 29] : reported pEC50 = ?
Response: 7.92

Request: Entry O=C(O)C[C@@H]1COc2cc(O[C@@H]3CCc4c(Oc5ccc(-n6ccnc6)cc5)ccc(F)c43)ccc21 [Example 10] : reported pEC50 = ?
Response: 7.96
